# Species on record: Cavia porcellus
# test.description: Increase in the coronary blood flow (CBF) was determined in isolated guinea pig heart at a dose of 100 ug/heart
# Type: functional
Attribute: Increase in CBF

{"compound": "CCN(CC)CCN1C(=O)C(O)C(c2ccc(OC)cc2)Sc2cc(Cl)ccc21 (single isomer, unassigned; (+))", "Increase in CBF": ">0.5 mL/min"}
{"compound": "COc1ccc(C2Sc3cc(Cl)ccc3N(CCN(C)C)C(=O)C2O)cc1 (single isomer, unassigned; (-))", "Increase in CBF": "<0.5 mL/min"}
{"compound": "COc1ccc(C2Sc3c(F)cccc3N(CCN(C)C)C(=O)C2O)cc1.Cl (stereo not given)", "Increase in CBF": ">0.5 mL/min"}
{"compound": "COc1ccc(C2Sc3cccc(Cl)c3N(CCN(C)C)C(=O)C2OC(C)=O)cc1.Cl (stereo not given)", "Increase in CBF": ">0.5 mL/min"}
{"compound": "CCN(C)CCN1C(=O)C(OC(C)=O)C(c2ccc(OC)cc2)Sc2cc(Cl)ccc21 (single isomer, unassigned; (+))", "Increase in CBF": ">0.5 mL/min"}
{"compound": "C=CCN(C)CCN1C(=O)C(OC(C)=O)C(c2ccc(OC)cc2)Sc2cc(Cl)ccc21 (stereo not given)", "Increase in CBF": ">0.5 mL/min"}
{"compound": "COc1ccc(C2Sc3c(Cl)cccc3N(CCN(C)C)C(=O)C2O)cc1 (single isomer, unassigned; (-))", "Increase in CBF": "<0.5 mL/min"}
{"compound": "COc1ccc(C2Sc3cc(Cl)ccc3N(CCN(C)C)C(=O)C2OC(=O)c2ccc([N+](=O)[O-])cc2)cc1 (stereo not given)", "Increase in CBF": ">0.5 mL/min"}
{"compound": "COc1ccc(C2Sc3ccc(Cl)cc3N(CCN(C)C)C(=O)C2OC(C)=O)cc1.Cl (single isomer, unassigned; (+))", "Increase in CBF": ">0.5 mL/min"}
{"compound": "CCN(CC)CCN1C(=O)C(OC(C)=O)C(c2ccc(OC)cc2)Sc2cc(Cl)ccc21 (stereo not given)", "Increase in CBF": ">0.5 mL/min"}
{"compound": "CCOC(=O)OC1C(=O)N(CCN(C)C)c2ccc(F)cc2SC1c1ccc(OC)cc1 (stereo not given)", "Increase in CBF": ">0.5 mL/min"}
{"compound": "COc1ccc(C2Sc3ccc(Cl)cc3N(CCN(C)C)C(=O)C2O)cc1 (single isomer, unassigned; (+))", "Increase in CBF": "<0.5 mL/min"}
{"compound": "COc1ccc(C2Sc3cc(Cl)ccc3N(CCN(C)C)C(=O)C2OCc2ccc([N+](=O)[O-])cc2)cc1 (single isomer, unassigned; (+))", "Increase in CBF": ">0.5 mL/min"}
{"compound": "COc1ccc(C2Sc3ccc(Cl)cc3N(CCN(C)C)C(=O)C2OC(C)=O)cc1.Cl (stereo in doubt; (-)-2ll)", "Increase in CBF": "<0.5 mL/min"}
{"compound": "CCN(C)CCN1C(=O)C(O)C(c2ccc(OC)cc2)Sc2cc(Cl)ccc21 (stereo not given)", "Increase in CBF": ">0.5 mL/min"}

====

Attribute: Potency ratio
# Species: Canis familiaris
# test.description: Antihypertensive activity expressed as the ratio of the potency evaluated by increased vertebral blood flow (VBF) to that of diltiazem.
# Type: functional, Canis lupus familiaris

{"molecule": "COc1ccc([C@@H]2Sc3ccccc3N(CCN(C)C)C(=O)[C@@H]2OC(C)=O)cc1 [DILTIAZEM]", "Potency ratio": 1}
{"molecule": "CCOC(=O)OC1C(=O)N(CCN(C)C)c2ccc(F)cc2SC1c1ccc(OC)cc1 (configuration not stated)", "Potency ratio": 0.16}
{"molecule": "COc1ccc(C2Sc3cc(Cl)c(Cl)cc3N(CCN(C)C)C(=O)C2OC(C)=O)cc1.Cl (configuration not stated)", "Potency ratio": 0.51}
{"molecule": "COc1ccc(C2Sc3ccc(Cl)cc3N(CCN(C)C)C(=O)C2O)cc1 (single isomer, unassigned; (+))", "Potency ratio": 0.17}
{"molecule": "CC(=O)OC1C(=O)N(CCN(C)C)c2ccc(Cl)cc2SC1c1ccc(C)cc1 (configuration not stated)", "Potency ratio": 0.37}
{"molecule": "COc1ccc(C2Sc3cc(Cl)ccc3N(CCN(C)C)C(=O)C2OC)cc1 (single isomer, unassigned; (+))", "Potency ratio": 0.58}
{"molecule": "COc1ccc(C2Sc3c(Cl)cccc3N(CCN(C)C)C(=O)C2O)cc1 (stereo in doubt; (+)-16m)", "Potency ratio": 1.25}
{"molecule": "C#CCN(C)CCN1C(=O)C(O)C(c2ccc(OC)cc2)Sc2cc(Cl)ccc21 (configuration not stated)", "Potency ratio": 0.06}
{"molecule": "COc1ccc(C2Sc3cc(F)ccc3N(CCN(C)C)C(=O)C2O)cc1.Cl (configuration not stated)", "Potency ratio": 0.37}
{"molecule": "COc1ccc(C2Sc3cc(Cl)ccc3N(CCN(C)C)C(=O)C2OC=O)cc1 (single isomer, unassigned; (+))", "Potency ratio": 0.73}
{"molecule": "CCCC(=O)OC1C(=O)N(CCN(C)C)c2ccc(Cl)cc2SC1c1ccc(OC)cc1 (single isomer, unassigned; (+))", "Potency ratio": 0.8}
{"molecule": "CCN(C)CCN1C(=O)C(O)C(c2ccc(OC)cc2)Sc2cc(Cl)ccc21 (configuration not stated)", "Potency ratio": 0.28}
{"molecule": "COc1ccc(C2Sc3cc(Cl)ccc3N(CCN(C)C)C(=O)C2O)cc1 (single isomer, unassigned; (+))", "Potency ratio": 0.94}
{"molecule": "CSc1ccc(C2Sc3cc(Cl)ccc3N(CCN(C)C)C(=O)C2OC(C)=O)cc1 (configuration not stated)", "Potency ratio": 0.21}
{"molecule": "Cc1ccc(C2Sc3cc(Cl)ccc3N(CCN(C)C)C(=O)C2O)cc1 (configuration not stated)", "Potency ratio": 0.52}
{"molecule": "COc1ccc(C2Sc3ccc(Cl)cc3N(CCN(C)C)C(=O)C2OC(C)=O)cc1.Cl (single isomer, unassigned; (+))", "Potency ratio": 0.93}
{"molecule": "COc1ccc(C2Sc3c(F)cccc3N(CCN(C)C)C(=O)C2O)cc1.Cl (configuration not stated)", "Potency ratio": 0.14}
{"molecule": "COc1ccc(C2Sc3cc(Cl)ccc3N(CCN(C)C)C(=O)C2O)cc1 (single isomer, unassigned; (-))", "Potency ratio": 0.02}
{"molecule": "CCN(CC)CCN1C(=O)C(O)C(c2ccc(OC)cc2)Sc2cc(Cl)ccc21 (single isomer, unassigned; (+))", "Potency ratio": 0.32}
{"molecule": "COc1ccc(C2Sc3c(F)cccc3N(CCN(C)C)C(=O)C2OC(C)=O)cc1.Cl (configuration not stated)", "Potency ratio": 0.34}
{"molecule": "CCN(C)CCN1C(=O)C(OC)C(c2ccc(OC)cc2)Sc2cc(Cl)ccc21 (single isomer, unassigned; (+))", "Potency ratio": 0.5}
{"molecule": "COc1ccc(C2Sc3cc(Cl)ccc3N(CCN(C)C)C(=O)C2OC(C)=O)cc1.Cl (single isomer, unassigned; (-))", "Potency ratio": 0.06}
{"molecule": "Cc1ccc(C2Sc3cc(Cl)ccc3N(CCN(C)C)C(=O)C2OC(=O)c2ccc(Cl)cc2[N+](=O)[O-])cc1 (configuration not stated)", "Potency ratio": 0.02}
{"molecule": "COc1ccc(C2Sc3cc(F)ccc3N(CCN(C)C)C(=O)C2OC(=O)c2ccc([N+](=O)[O-])cc2)cc1 (configuration not stated)", "Potency ratio": 0.35}
{"molecule": "COc1ccc(C2Sc3ccc(Cl)cc3N(CCN(C)C)C(=O)C2OC(C)=O)cc1.Cl (stereo in doubt; (-)-2ll)", "Potency ratio": 0.03}
{"molecule": "CCCCNC(=O)OC1C(=O)N(CCN(C)C)c2ccc(Cl)cc2SC1c1ccc(OC)cc1 (configuration not stated)", "Potency ratio": 0.31}
{"molecule": "COc1ccc(C2Sc3c(ccc(Cl)c3Cl)N(CCN(C)C)C(=O)C2OC(C)=O)cc1.Cl (configuration not stated)", "Potency ratio": 0.35}
{"molecule": "COc1ccc(C2Sc3cc(Cl)ccc3N(CCN(C)C)C(=O)C2OC(C)=O)cc1.Cl (stereo in doubt; 2w)", "Potency ratio": 0.01}
{"molecule": "CCC(=O)OC1C(=O)N(CCN(C)C)c2ccc(Cl)cc2SC1c1ccc(OC)cc1 (single isomer, unassigned; (+))", "Potency ratio": 1.45}
{"molecule": "CCCCC(=O)OC1C(=O)N(CCN(C)C)c2ccc(Cl)cc2SC1c1ccc(OC)cc1 (single isomer, unassigned; (+))", "Potency ratio": 0.67}
{"molecule": "COc1ccc(C2Sc3c(Cl)cccc3N(CCN(C)C)C(=O)C2OC(C)=O)cc1.Cl (single isomer, unassigned; (+))", "Potency ratio": 0.83}
{"molecule": "COc1ccc(C2Sc3c(Cl)cccc3N(CCN(C)C)C(=O)C2OC(C)=O)cc1.Cl (single isomer, unassigned; (-))", "Potency ratio": 0.06}
